Tested on: P. falciparum 3D7 growth, pLDH absorbance
EXPERIMENT_NOTES: blood-stage malaria parasite growth potency – strain 3D7, dose response (AID 2305)
Consider the cut-off 800 nM. If the recorded IC50 is strictly smaller, the label is y; if not, the label is n.

Decide: IC50 of `O=C(/C=C/c1ccc(Cl)cc1)NCCCCCN1CCC(C(=O)Nc2ccc(Cl)cc2)CC1` strictly below 800 nM?
n

Regarding `CN1CCN(CCCSc2ccc3c(c2)ncn3-c2cc(OCc3ccccc3C(F)(F)F)c(C(N)=O)s2)CC1` , kindly confirm whether its IC50 is beneath 800 nM.
y

Lab note: IC50 threshold 800 nM. Does this molecule come in strictly under it? `Cc1noc(-c2cccs2)c1C(=O)NCCc1cccc(Cl)c1`
y

Dear colleague, could you confirm whether IC50 of `Cc1cc(Nc2ccc(C(C)(C)C)cc2)c2[nH]ncc2n1` falls below 800 nM? Thanks.
n

Strictly below 800 nM in IC50? `CCCN(CCCN(CCCN(CCC)C(C)C)c1cc(C)nc(Nc2ccc(Cl)cc2)n1)C(C)C`
y

For this molecule, is IC50 lower than 800 nM? Cc1c(C)c2c(c(C)c1O)CCC(C)(CCC(=O)O)O2 (stereo not drawn)
y

Decide: IC50 of `Cc1cccc2[nH]c(-c3cccc(-c4ccc(NC(=O)Nc5ccc6c(c5)OCO6)cc4)c3)nc12` strictly below 800 nM?
y

Lab log: compare recorded IC50 with 800 nM; is it strictly lower for `CC1CCN(CC[C@H]2CCCN2S(=O)(=O)c2cccc(NC(=O)c3ccc(-c4ccc(Cl)cc4)o3)c2)CC1` ?
y

Does the reported IC50 of `Cn1cc(-c2ccccc2C(=O)O)c(=O)c2cc(Cl)ccc21` stay below 800 nM?
n

Dear reviewer, please state whether `CC(C)C[C@H](NC(=O)c1ccc(OCCN2CCOCC2)cc1)C(=O)N[C@H](/C=N/NC(=O)OC(C)(C)C)CCc1ccccc1` has IC50 strictly beneath 800 nM.
y

IC50 strictly < 800 nM for this molecule? `Cc1[nH]c(C)c(-c2ccc(-c3ccc(C(F)(F)F)cc3C(F)(F)F)nc2)c(=O)c1Br`
y

A record lists `CCCCOC(=O)NCCCC[C@H](NC(=O)OC(C)(C)C)C(=O)N[C@H](C(=O)OC(c1ccccc1)c1ccccc1)[C@H]1O[C@@H](n2ccc(=O)[nH]c2=O)[C@@H]2OC(C)(C)O[C@@H]21` . Is its IC50 below 800 nM?
n

Strictly below 800 nM in IC50? N#Cc1ccc2c(c1)CN(CCC1CCC(NC(=O)c3cc4ccccc4cc3N)CC1)CC2 (stereo not drawn)
n

Please check: IC50 for `Cc1cccc2[nH]c(-c3ccc(-c4cccc(CN5CCC(CO)CC5)c4)s3)nc12` , strictly under 800 nM or not?
n

is_below(IC50, 800 nM) for `Nc1ccc(-c2nc3ccc(Oc4ccc5nc(-c6ccc(N)cc6)[nH]c5c4)cc3[nH]2)cc1` ?
y

Lab note: confirm whether the reported IC50 for this molecule is below 800 nM, equality not counting. molecule: COc1ccc(CN(C2CC2)C(C)C(=O)c2[nH]c(C)c(C(C)=O)c2C)cc1 (stereo not drawn)
n

Hello, is IC50 of the following molecule strictly smaller than 800 nM? `CCOC(=O)N1CCN(CCCNc2c3ccc(Cl)cc3nc3ccc(OC)cc23)CC1`
y
